Experiment: binders of probe aFGF2 on microarray, primary screen, stem cell growth factor project, biochemical, small-molecule microarray, fluorescence 635/667 (AID 1067);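 further: measures binding of biotinylated aFGF2 protein to printed compounds on slides; z-score merges feature fluorescence and signal-to-noise across triplicate slides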
Details: higher = more signal
# composite z-score >= -0.06 gives condition met, anything below gives condition not met

## Input Please check the record `COCC(=C=CC[C@@H](O)c1cccc(OCCO)c1)CCO` and state if its composite z-score is at or above -0.06.
## Output condition not met

## Input Please check the record C=CCC(OC(C)=O)[C@@H]1[C@@H](N(Cc2ccc(-c3cccc(C(F)(F)F)c3)o2)C(=O)Cc2ccc(OC)cc2)c2cc(OCCCO)ccc2N1C(=O)Cc1ccc2ccccc2c1 (stereo not given in full) and state if its composite z-score is at or above -0.06.
## Output condition not met

## Input Please check the record `COCCCNC(=O)[C@@]1(Sc2ccc(C)cc2)CC(=O)N(C(C)C)[C@@H]1c1ccc(CO)cc1I` and state if its composite z-score is at or above -0.06.
## Output condition met

## Input Please check the record `CC(C)CNC(=O)[C@@]1(c2ccc([N+](=O)[O-])cc2)CC(=O)N(C2CCCCC2)[C@@H]1c1ccc(CO)cc1` and state if its composite z-score is at or above -0.06.
## Output condition met

###

Test: inhibitors of hydroxyurea-induced Chk1 phosphorylation, primary screen, imaging, HeLa, phospho-Chk1 antibody, percent positive cells (AID 1186)
Conditions: hydroxyurea-induced phospho-Chk1 immunofluorescence imaging, higher = more signal
Give measured z-score for each item. Keep answers brief.
Respond numerically, and do not add a unit to the figure.

For reference, reported z-score for `Cc1ccc(S[C@]2(C(=O)NC(C)C)CC(=O)N(C(C)C)[C@@H]2c2ccc(CO)cc2I)cc1` stands at 0.0841

For reference, reported z-score for `COC(=O)[C@@]1(Cc2ccc(OC)cc2)[C@H]2c3cc(C(=O)N4CCCC4)n(Cc4ccc(OC(F)(F)F)cc4)c3C[C@H]2CN1C(=O)c1ccccc1` stands at 0.168

For reference, reported z-score for CC(C)C[C@@H]1NC(=O)[C@@]23C(=O)N[C@@H](Cc4ccccc4)C2[C@H](C)[C@@]2(C)O[C@H]2C3/C=C/C/C=C\CNC(=O)[C@@H](C)NC1=O (some centres undefined) stands at -0.674

For reference, reported z-score for O=C1C2C=CC(C(O)c3cc(C(F)(F)F)cc(C(F)(F)F)c3)N(Nc3ccccc3F)C2C(=O)N1c1ccccc1 (centres undefined) stands at 0.563

For reference, reported z-score for C=C(C)C1CCC(C(O)C2C=CC3C(=O)N(C)C(=O)C3N2Nc2cc(OC)c(OC)c(OC)c2)CC1 (centres undefined) stands at -0.113

For reference, reported z-score for `COc1ccc(C(=O)Nc2cccc(CN3C(=O)[C@]4(O[C@H](CCn5cc([C@H](O)c6ccccc6)nn5)[C@@H]([Si](C)(C)c5ccc(OC)cc5)[C@@H]4C)c4ccccc43)c2)cc1` stands at -0.161

For reference, reported z-score for `CCOC(=O)C[C@H]1[C@H](OC(=O)c2ccc(C(=O)c3ccccc3)cc2)[C@@H](NC(=O)CC(C)C)c2cc(OCCCO)ccc2N1C(=O)Cc1ccc(OC)cc1` stands at 0.291

For reference, reported z-score for `C=C(CCCC)C(=O)CC[C@H](OC(C)=O)c1ccc(OCCO)cc1` stands at -0.427

For reference, reported z-score for `[N-]=[N+]=Nc1ccccc1C[C@]1(C(=O)NCc2ccccc2)COC(c2ccc(OCCCO)cc2)=N1` stands at -0.364

For reference, reported z-score for COc1cc(NN2C(C(O)c3cc(OC)c(OC)c(OC)c3)C=CC3C(=O)N(c4ccccc4)C(=O)C32)cc(OC)c1OC (centres undefined) stands at 1.06

For reference, reported z-score for `COc1ccc([Si](C)(C)[C@H]2[C@H](CCO)O[C@@]3(C(=O)N(Cc4ccccc4)c4ccc(N5C(=O)c6ccccc6Oc6ccccc65)cc43)[C@@H]2C)cc1` stands at 0.564

For reference, reported z-score for `CCOC(=O)C1=C[C@@H](c2ccccc2)N(S(=O)(=O)c2ccc(C)cc2)[C@H]1c1ccccc1` stands at 0.667

For reference, reported z-score for O=C1C2C=CC(C(O)c3ccc(I)cc3)N(Nc3ccccc3)C2C(=O)N1c1ccccc1 (centres undefined) stands at -0.007

For reference, reported z-score for `C=CCNC(=O)[C@@H]1[C@H]2C(=O)O[C@H](c3ccccc3)[C@H](c3ccccc3)N2[C@H](c2ccc(OCCO)cc2)[C@@]12C(=O)N(C(=O)OCCOC)c1ccc(C#CCCO)cc12` stands at -0.604

For reference, reported z-score for CS(=O)(=O)CCOC(=O)C1=CC(CCCO)=CC(C2CC2)N(Cc2cccc(OC(F)(F)F)c2)C=C1C(=O)OCCS(C)(=O)=O (centres undefined) stands at -0.002

For reference, reported z-score for CCOC(=O)C1=CCN(S(=O)(=O)c2ccc(C)cc2)C1c1ccccc1 (centres undefined) stands at 0.607

For reference, reported z-score for `COCCOC(=O)N1C(=O)[C@@]2(c3cc(C#CCCO)ccc31)[C@H](c1ccccc1OCCO)N1[C@H](c3ccccc3)[C@H](c3ccccc3)OC(=O)[C@H]1[C@@H]2C(=O)N1CCCCCCC1` stands at -0.304

For reference, reported z-score for COC(=O)C1=CC(CCCO)=CC(c2ccc(CN3CCCC3)cc2)N(Cc2cc3c(cc2Br)OCO3)C=C1C(=O)OC (centres undefined) stands at 0.119

For reference, reported z-score for `COC(=O)[C@@]1(Cc2ccccc2)[C@H]2c3cc(C(=O)N(C)C)n(CCn4cc([N+](=O)[O-])nc4C)c3C[C@H]2CN1C(=O)c1ccccc1` stands at -0.3

For reference, reported z-score for `O=C(O)[C@@H]1C[C@@H]2C(=O)N3CCC[C@H]3C(=O)N2[C@@H]1c1cccc(OCCO)c1` stands at 0.299

For reference, reported z-score for `COC(=O)[C@@]1(Cc2ccc(OC)cc2)[C@H]2c3cc(C(=O)N4CCCC4)n(Cc4cc(C)n(C)n4)c3C[C@H]2CN1C(=O)c1ccccc1` stands at -0.6

For reference, reported z-score for `C=C(CCCC)/C(=C/C[C@H](OC(C)=O)c1ccc(OCCO)cc1)c1cc(C(=O)OC)ccc1OC` stands at -1.09

For reference, reported z-score for `Cc1ccc(S[C@]2(C(=O)NCC(C)C)CC(=O)N(C3Cc4ccccc4C3)[C@@H]2c2ccc(CO)cc2I)cc1` stands at 0.495

For reference, reported z-score for C=CCC(OC(C)=O)[C@@H]1[C@@H](N(Cc2ccc(-c3ccccc3)cc2)C(=O)c2ccc(C)cc2)c2cc(OCCCO)ccc2N1C(=O)Cc1ccc2ccccc2c1 (some centres undefined) stands at -0.816

Entry source: PubChem BioAssay
